system: Leishmania amazonensis; assay: Antileishmanial activity against Leishmania amazonensis MHOM/Br/75/Josefa promastigotes by MTT colorimetric method; format: functional, organism-based
pIC50: −log10 of the molar value.
Would you mind telling me the reported pIC50 of each entry?

Worked set:
Sc1ncnc2nc[nH]c12 [MERCAPTOPURINE ANHYDROUS]	< 3.64
CCOC(=O)CSc1ncnc2[nH]cnc12	< 3.64

Next up:
Asked: Given "CC1(C)O[C@H]2[C@@H](O1)[C@@H](CSc1ncnc3[nH]cnc13)O[C@@H]1OC(C)(C)O[C@@H]12" , state its recorded pIC50.
Given back: < 3.64
